// data source = patent US8426429B2

Target: β-secretase (BACE) (Homo sapiens, UniProt P56817)
Construct: purchased Panvera
Sequence (P56817 46-501): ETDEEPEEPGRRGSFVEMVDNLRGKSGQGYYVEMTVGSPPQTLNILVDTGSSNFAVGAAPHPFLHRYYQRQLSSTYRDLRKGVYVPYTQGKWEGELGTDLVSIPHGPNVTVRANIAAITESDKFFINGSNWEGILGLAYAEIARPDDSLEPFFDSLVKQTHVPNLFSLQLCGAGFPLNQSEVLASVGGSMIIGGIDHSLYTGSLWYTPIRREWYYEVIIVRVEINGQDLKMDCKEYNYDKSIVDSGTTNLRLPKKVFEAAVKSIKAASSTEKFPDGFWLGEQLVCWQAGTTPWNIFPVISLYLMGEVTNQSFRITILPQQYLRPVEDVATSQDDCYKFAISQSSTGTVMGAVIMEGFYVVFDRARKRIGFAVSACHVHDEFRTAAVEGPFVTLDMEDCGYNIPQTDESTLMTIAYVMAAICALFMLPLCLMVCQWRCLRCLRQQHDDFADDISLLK
Experiment: BACE FS1 % Inhibition Assay
Format: biochemical
Conditions: 0.3 μM compound; FS1 substrate
experimentalEndpoint: % Inhibition (FS)

Reference set, count: 2
compound	% Inhibition (FS)
COc1ccccc1-c1ccc2c(c1)CN(CCNC(=O)C1CCC(C(F)(F)F)CC1)C(N)=N2 (stereo not shown) [Compound 698]	<30%
Cc1ccccc1-c1ccc2c(c1)CN(CCNC(=O)CC(C)C(F)(F)F)C(N)=N2 (stereo not shown) [Compound 679]	78%

Lookup: % Inhibition (FS) / β-secretase (BACE) (Homo sapiens, UniProt P56817) / COc1cccc(F)c1-c1ccc2c(c1)CN(CCNC(=O)C1CCC(C(F)(F)F)CC1)C(N)=N2 (stereo not shown) [Compound 700] <30%

Lookup: % Inhibition (FS) / β-secretase (BACE) (Homo sapiens, UniProt P56817) / COc1cccc(F)c1-c1ccc2c(c1)CN(CCNC(=O)C1CCOCC1)C(N)=N2 [Compound 699] 31%

Lookup: % Inhibition (FS) / β-secretase (BACE) (Homo sapiens, UniProt P56817) / COC(=O)Cc1cccc(CN(C)C(=O)CCC(C2CCCCC2)N2Cc3cc(Oc4ccccc4)ccc3N=C2N)c1 (stereo not shown) [Compound 775] <30%

Lookup: % Inhibition (FS) / β-secretase (BACE) (Homo sapiens, UniProt P56817) / NC1=Nc2ccc(-c3cnc4ccccc4c3)cc2CN1CCNC(=O)C1CCCC1 [Compound 671] <30%

Lookup: % Inhibition (FS) / β-secretase (BACE) (Homo sapiens, UniProt P56817) / CC(=O)N1CCC(C(=O)NCCN2Cc3cc(C4=CCCCC4)ccc3N=C2N)CC1 [Compound 705] <30%

Lookup: % Inhibition (FS) / β-secretase (BACE) (Homo sapiens, UniProt P56817) / CN(C(=O)CCC(C1CCCCC1)N1Cc2cc(Oc3ccccc3)ccc2N=C1N)C1CCC(C(=O)OCc2ccccc2)CC1 (stereo not shown) [Compound 760] <30%

Lookup: % Inhibition (FS) / β-secretase (BACE) (Homo sapiens, UniProt P56817) / NC1=Nc2ccc(-c3ccccc3)cc2CN1CCNC(=O)C1CCC(C(F)(F)F)CC1 (stereo not shown) [Compound 701] <30%

Lookup: % Inhibition (FS) / β-secretase (BACE) (Homo sapiens, UniProt P56817) / NC1=Nc2ccc(-c3ccc4ccccc4c3)cc2CN1CCNC(=O)C1CCC1 [Compound 663] <30%

Lookup: % Inhibition (FS) / β-secretase (BACE) (Homo sapiens, UniProt P56817) / COc1ccccc1-c1ccc2c(c1)CN([C@@H](CCC(=O)N(C)Cc1cc(-c3ccccc3)on1)C1CCCCC1)C(N)=N2 [Compound 719] 31%

Lookup: % Inhibition (FS) / β-secretase (BACE) (Homo sapiens, UniProt P56817) / COc1ccccc1-c1ccc2c(c1)CN(CCNC(=O)C1CCOCC1)C(N)=N2 [Compound 697] <30%

Lookup: % Inhibition (FS) / β-secretase (BACE) (Homo sapiens, UniProt P56817) / COc1ccccc1-c1ccc2c(c1)CN([C@@H](CCC(=O)N(C)Cc1cc(C)no1)C1CCCCC1)C(N)=N2 [Compound 718] <30%

Lookup: % Inhibition (FS) / β-secretase (BACE) (Homo sapiens, UniProt P56817) / CCCCC(CC)C(=O)NCCN1Cc2cc(-c3ccccc3C)ccc2N=C1N (stereo not shown) [Compound 662] 66%

Lookup: % Inhibition (FS) / β-secretase (BACE) (Homo sapiens, UniProt P56817) / NC1=Nc2ccc(-c3ccc4ccccc4c3)cc2CN1CCNC(=O)CCC(F)(F)F [Compound 686] <30%

Lookup: % Inhibition (FS) / β-secretase (BACE) (Homo sapiens, UniProt P56817) / COC1CCCC(C(=O)NCCN2Cc3cc(-c4ccccc4C)ccc3N=C2N)C1 (stereo not shown) [Compound 696] <30%

* * *

Biological target: β-secretase (BACE) (Homo sapiens, UniProt P56817)
Construct: purchased Panvera
Assay: BACE FS1 % Inhibition Assay
Type: biochemical
Details: 0.3 μM test compound; 0.3 µM
experimentalEndpoint: % Inhibition (FS) (%)

molecule	unitAbbreviation	% Inhibition (FS)
CCCC(CNC(=O)C12CC3CC(CC(C3)C1)C2)N1Cc2cc(Oc3ccccc3)ccc2N=C1N (stereo not shown) [Compound 602]	%	78
CCCC(CNC(=O)C1CCCCC1)N1Cc2cc(Oc3ccccc3)ccc2N=C1N (stereo not shown) [Compound 601]	%	105

* * *

Target: β-secretase (BACE) (Homo sapiens, UniProt P56817)
Construct: purchased Panvera
Experiment: BACE FS1 % Inhibition Assay
Format: biochemical
Conditions: 0.3 μM compound; FS1 substrate
Experimental: The following reagents were used in this assay: sodium acetate, PEG8000 (Sigma), DMSO, HEPES, FS1 substrate [[…]] […] The FS1-substrate stock solution was prepared in DMSO as a 10 mg/mL solution. The FS1-substrate working solution was prepared by diluting the 10 mg/mL stock solution with substrate assay buffer to a final concentration of 300 μg/mL. […] For test compounds, % inhibition was determined at each concentration as follows: [formula]
experimentalEndpoint: % Inhibition (FS) (%)

a = COC(=O)C1CCCC(N(C)C(=O)CCC(C2CCCCC2)N2Cc3cc(Oc4ccccc4)ccc3N=C2N)C1 (mixture of isomers) [Compound 777]
b = CN(C(=O)CCC(C1CCCCC1)N1Cc2cc(Oc3ccccc3)ccc2N=C1N)C1(C(=O)O)CCCCC1 (stereo not shown) [Compound 741]
Exercise: compare a and b ; which one has the greater % Inhibition (FS)? Write down the label attached to your selection. a

* * *

Molecular target: β-secretase (BACE) (Homo sapiens, UniProt P56817)
Construct: purchased Panvera
Assay: BACE FS1 % Inhibition Assay
Assay type: biochemical
Details: 1 μM test compound
experimentalEndpoint: % Inhibition (FS) (%)

a = CC(C)(C)C(=O)NCCN1Cc2cc(-c3ccccc3Cl)ccc2N=C1N [Compound 653]
b = CN(C(=O)c1cccc(CN2Cc3cc(Nc4ccc5ccccc5c4)ccc3N=C2N)c1)C1CCCCC1 [Compound 436]
Exercise: compare a and b ; which one has the greater % Inhibition (FS)? Write down the label attached to your selection. a
(a: 82%, b: 37%)

* * *

Biological target: β-secretase (BACE) (Homo sapiens)
Construct: purchased Panvera
Assay: BACE FS1 % Inhibition Assay
Format: biochemical
Conditions: 3 μM compound; FS1 substrate
experimentalEndpoint: % Inhibition (FS) (%)

compound	tgt	% Inhibition (FS), %
CC(=O)N1CCC(C(=O)NCCN2Cc3cc(-c4ccccc4C)ccc3N=C2N)CC1 [Compound 695]	β-secretase (BACE) (Homo sapiens)	54

I = CN(Cc1csc(-c2ccccc2)n1)C(=O)CC[C@@H](C1CCCCC1)N1Cc2cc(-c3ccccc3F)ccc2N=C1N [Compound 722]
II = CCCCC(CC)C(=O)NCCN1Cc2cc(-c3ccc4ccccc4c3)ccc2N=C1N (stereo not drawn) [Compound 669]
III = CN(C(=O)CCC(C1CCCCC1)N1Cc2cc(Oc3ccccc3)ccc2N=C1N)C1(C(=O)O)CCCCC1 (stereo not drawn) [Compound 741]
Rank descending by % Inhibition (FS). # the answer lists labels in the order requested I, II, III

* * *

Molecular target: β-secretase (BACE) (Homo sapiens, UniProt P56817)
Construct: purchased Panvera
Experiment: BACE FS1 % Inhibition Assay
Type: biochemical
Conditions: 1 μM test compound
Protocol: The following reagents were used in this assay: sodium acetate, PEG8000 (Sigma), DMSO, HEPES, FS1 substrate [[…]] […] The FS1-substrate stock solution was prepared in DMSO as a 10 mg/mL solution. The FS1-substrate working solution was prepared by diluting the 10 mg/mL stock solution with substrate assay buffer to a final concentration of 300 μg/mL. […] For test compounds, % inhibition was determined at each concentration as follows: [formula]
experimentalEndpoint: % Inhibition (FS) (%)

compound	resultNumber
Cc1ccccc1-c1ccc2c(c1)CN(CCNC(=O)C13CC4CC(CC(C4)C1)C3)C(N)=N2	62
Cc1ccc(C(CCC(=O)N(C)C2CCCCC2)N2Cc3cc(Oc4ccccc4)ccc3N=C2N)cc1 (stereo not shown)	71
CN(C(=O)c1cccc(CN2Cc3cc(Oc4ccc5c(c4)CCCC5)ccc3N=C2N)c1)C1CCCCC1	32

1 = CN(C(=O)c1cccc(CN2Cc3cc(Oc4ccccc4-c4ccccc4)ccc3N=C2N)c1)C1CCCCC1
2 = CN(C(=O)c1cccc(CN2Cc3cc(Oc4cccc(Oc5ccccc5)c4)ccc3N=C2N)c1)C1CCCCC1
3 = CN(C(=O)CCC(C1CCOCC1)N1Cc2cc(Oc3ccccc3)ccc2N=C1N)C1CCCCC1 (stereo not shown)
Arrange these 3 compounds in increasing order of % Inhibition (FS). # the answer lists labels in the order requested 2, 1, 3

P = CN(C(=O)c1cccc(CN2Cc3cc(Oc4ccccc4CC(N)=O)ccc3N=C2N)c1)C1CCCCC1
Q = CN(C(=O)c1cccc(CN2Cc3cc(Nc4ccc5c(c4)OCO5)ccc3N=C2N)c1)C1CCCCC1
Exercise: compare P and Q ; which one has the greater % Inhibition (FS)? Write down the label attached to your selection. P
(P: 46%, Q: 29%)

a = CCCC(=O)NCCN1Cc2cc(-c3ccccc3Cl)ccc2N=C1N
b = CCCCCC1CC2(C(=O)NCCN3Cc4cc(Oc5ccccc5)ccc4N=C3N)CCC1CC2 (stereo not shown)
Given a and given b , which shows the smaller recorded % Inhibition (FS)? Write down the label attached to your selection. b
(b: 42%, a: 63%)

A = CN(C(=O)c1cccc(CN2Cc3cc(-c4ccc(C5CCCCC5)cc4)ccc3N=C2N)c1)C1CCCCC1
B = CCC(c1cccc(C(=O)N(C2CCCCC2)C2CCCCC2)c1)N1Cc2cc(Oc3ccccc3)ccc2N=C1N (stereo not shown)
Exercise: compare A and B ; which one has the greater % Inhibition (FS)? Write down the label attached to your selection. B
(B: 64%, A: 39%)

1 = CN(C(=O)c1cccc(CN2Cc3cc([S+]([O-])c4ccccc4)ccc3N=C2N)c1)C1CCCCC1 (stereo not shown)
2 = Cc1cc(C)cc(Oc2ccc3c(c2)CN(Cc2cccc(C(=O)N(C)C4CCCCC4)c2)C(N)=N3)c1
Exercise: compare 1 and 2 ; which one has the greater % Inhibition (FS)? Write down the label attached to your selection. 2
(2: 49%, 1: 30%)
